system under test: Galectin-7 (Homo sapiens)
Sequence (P47929 whole entry): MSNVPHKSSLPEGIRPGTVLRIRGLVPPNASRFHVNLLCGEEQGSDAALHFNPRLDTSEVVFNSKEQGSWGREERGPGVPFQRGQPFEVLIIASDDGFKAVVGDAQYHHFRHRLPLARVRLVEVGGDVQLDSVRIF
assay metric: Kd (µM)
Kindly answer with a numeric value in µM, unit omitted.

Given Cn1c(CO[C@@H]2[C@@H](O)[C@@H](Sc3ccc(Cl)c(Cl)c3)O[C@H](CO)[C@@H]2O)nc2ccc(C(=O)O)cc21 , report its Kd on Galectin-7 (Homo sapiens).
190

* * *

system under test: UniProt:O00214
Sequence (O00214 whole entry, the tested form may be a part): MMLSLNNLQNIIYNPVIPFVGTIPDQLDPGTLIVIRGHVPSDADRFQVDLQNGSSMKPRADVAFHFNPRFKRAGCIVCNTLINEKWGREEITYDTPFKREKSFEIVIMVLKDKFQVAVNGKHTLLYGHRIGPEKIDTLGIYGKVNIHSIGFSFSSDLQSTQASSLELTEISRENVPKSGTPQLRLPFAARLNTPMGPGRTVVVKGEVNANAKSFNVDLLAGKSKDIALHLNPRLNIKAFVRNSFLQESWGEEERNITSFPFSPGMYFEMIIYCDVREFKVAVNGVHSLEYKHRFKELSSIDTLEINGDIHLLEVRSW
assay procedure: Binding affinity to human galactin-8 N terminal domain assessed as dissociation constant by competitive fluorescence polarization assay
Reported pKd by item:
The meaning of pKd here: minus log10 of the concentration in molar units.

The cases that follow already have their pKd on record.
mol | pKd
Cn1c(CO[C@@H]2[C@@H](O)[C@@H](Sc3ccc(Cl)c(Cl)c3)O[C@H](CO)[C@@H]2O)nc2ccc(C(=O)O)cc21 | 5.74
CO[C@@H]1O[C@H](CO)[C@H](O)[C@H](OCc2nc3ccccc3n2C)[C@H]1O | 2.92

// below: pKd requested for another molecule
Give reported pKd value for Cc1ccc(S[C@@H]2O[C@H](CO)[C@H](O)[C@H](OCc3cn(-c4ccc(C(=O)O)cc4)nn3)[C@H]2O)cc1
2.82
